test: qHTS assay to identify small molecule that activate the aryl hydrocarbon receptor (AhR) signaling pathway - cell viability counter screen (AID 743086); conditions: HepG2-AhR-luc viability, CellTiter-Fluor, 24 h; series mostly up to 70.3 µM; further: nearly all actives have a fitted effect of over 45% in size
Records with an inconclusive call do not appear. Calls of active or inactive are those of the source. The call rests on the fitted dose curve; in most records, active means well fitted cell-killing curve with a large enough effect in the repeat runs; inconclusive means weak or mixed curves, or effect the other way; inactive means flat fitted curve, though single readings scatter.
Outcomes: TRUE = active, FALSE = inactive

molecule=O=C1NCCN1CCN1CCC(c2cn(-c3ccc(F)cc3)c3ccc(Cl)cc23)CC1 class_name=TRUE
molecule="CCCCN(CCCC)CCC(O)c1cc2c(Cl)cc(Cl)cc2c2cc(C(F)(F)F)ccc12 (stereo not given)" class_name=FALSE
molecule=O=C1NCN(c2ccccc2)C12CCN(CCCC(c1ccc(F)cc1)c1ccc(F)cc1)CC2 class_name=FALSE
molecule="COc1ccccc1OCCNCC(O)COc1cccc2[nH]c3ccccc3c12 (stereo not given)" class_name=FALSE
molecule="C=C1C(C)(C)[C@@]2(Cl)C(Cl)[C@]1(Cl)C(Cl)(Cl)C2(Cl)Cl (stereo not given in full)" class_name=FALSE
